- Tested on: Lysine-specific demethylase 2A (Homo sapiens)
- Sequence (Q9Y2K7 whole entry): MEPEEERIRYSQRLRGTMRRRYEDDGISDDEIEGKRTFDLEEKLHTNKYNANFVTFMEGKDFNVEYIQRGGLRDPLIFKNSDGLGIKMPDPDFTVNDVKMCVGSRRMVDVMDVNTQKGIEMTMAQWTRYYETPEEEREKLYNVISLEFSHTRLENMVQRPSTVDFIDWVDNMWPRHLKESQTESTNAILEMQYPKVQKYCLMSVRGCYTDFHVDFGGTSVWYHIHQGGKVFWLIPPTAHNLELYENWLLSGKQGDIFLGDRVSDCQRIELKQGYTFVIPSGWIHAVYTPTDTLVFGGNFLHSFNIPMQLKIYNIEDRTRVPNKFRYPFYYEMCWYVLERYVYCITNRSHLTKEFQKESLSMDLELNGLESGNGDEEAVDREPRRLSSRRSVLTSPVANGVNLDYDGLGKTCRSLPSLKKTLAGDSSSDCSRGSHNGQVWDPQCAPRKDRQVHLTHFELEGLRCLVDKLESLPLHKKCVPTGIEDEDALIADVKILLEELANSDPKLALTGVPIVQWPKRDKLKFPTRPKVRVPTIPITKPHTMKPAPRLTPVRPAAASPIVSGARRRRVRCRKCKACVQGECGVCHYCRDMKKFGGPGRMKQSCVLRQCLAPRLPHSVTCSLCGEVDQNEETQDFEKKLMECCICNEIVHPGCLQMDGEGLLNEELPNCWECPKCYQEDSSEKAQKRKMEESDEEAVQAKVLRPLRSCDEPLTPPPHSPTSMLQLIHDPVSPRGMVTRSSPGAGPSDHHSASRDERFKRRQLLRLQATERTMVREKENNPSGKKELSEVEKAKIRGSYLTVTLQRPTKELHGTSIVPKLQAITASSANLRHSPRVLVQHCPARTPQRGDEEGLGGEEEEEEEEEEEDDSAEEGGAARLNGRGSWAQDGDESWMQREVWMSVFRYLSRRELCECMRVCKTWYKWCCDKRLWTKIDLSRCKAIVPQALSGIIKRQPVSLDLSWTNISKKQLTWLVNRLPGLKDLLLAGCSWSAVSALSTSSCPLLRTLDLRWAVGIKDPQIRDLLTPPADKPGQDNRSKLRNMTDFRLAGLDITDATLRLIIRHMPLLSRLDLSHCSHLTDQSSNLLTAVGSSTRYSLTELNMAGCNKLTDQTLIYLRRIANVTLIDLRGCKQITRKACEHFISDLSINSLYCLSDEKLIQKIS
Value type: IC50 (µM)
One number for each entry, in µM.

Sample smiles | Quantity unit | IC50
COCC(=O)Nc1ccc(O)c(-c2cc(C(=O)O)ccn2)c1 | µM | 91
O=C(O)c1ccnc(-c2cc(NC(=O)c3ccc(O)cc3)ccc2O)c1 | µM | 89
COc1cccc(CC(=O)Nc2ccc(O)c(-c3cc(C(=O)O)ccn3)c2)c1 | µM | 89

Now consider the entry below.
## Input Lab request: please report IC50 under test system Lysine-specific demethylase 2A (Homo sapiens) for "Cc1cc(C(=O)Nc2ccc(O)c(-c3cc(C(=O)O)ccn3)c2)no1"
## Output 76
